test: Cytotoxic activity against human SF188 cells assessed as inhibition of cell proliferation incubated for 72 hrs by MTT assay
Type: functional, cell-based
condition-label: SF-188, 72 h
pIC50: −log10 of the molar value.
measured-property: pIC50

substance-smiles	endpoint-value
C=C(CC)C(=O)c1ccc(OCC(=O)O)c(Cl)c1Cl	4.50
C=C(CC)C(=O)c1ccc(OCC(=O)N[C@@H]2[C@@H](O)[C@H](O)[C@@H](CO)O[C@H]2O)c(Cl)c1Cl	4.91

---

System: HT-29
test: Cytotoxic activity against human HT-29 cells assessed as inhibition of cell proliferation incubated for 72 hrs by MTT assay
Assay type: functional, cell-based
condition-label: HT-29, 72 h
measured-property: IC50 (µM)

compound	measured-on	readout-unit	endpoint-value
C=C(CC)C(=O)c1ccc(OCC(=O)N[C@@H]2[C@@H](O)[C@H](O)[C@@H](CO)O[C@H]2O)c(Cl)c1Cl	HT-29	µM	21.7
C=C(CC)C(=O)c1ccc(OCC(=O)O)c(Cl)c1Cl [ETHACRYNIC ACID]	HT-29	µM	62.4

Ref: ChEMBL document CHEMBL3797027
